Tested on: S. cerevisiae AGP1-GFP strain, flow cytometry fluorescence, 3 h
Experiment: AGP1-GFP level modulation, analog dose series – cell-based, flow cytometry, S. cerevisiae, cherry pick 3, SAR follow-up (AID 488790)
MEASUREMENT_TYPE: EC50

Q) Please report the measured EC50 for CCOC(=O)CS(=O)(=O)c1nc(-c2ccccc2)cc(C(F)(F)F)n1 tested on S. cerevisiae AGP1-GFP strain, flow cytometry fluorescence, 3 h.
A) 4.59 µM
